B1: glmS ribozyme (parent)
chain: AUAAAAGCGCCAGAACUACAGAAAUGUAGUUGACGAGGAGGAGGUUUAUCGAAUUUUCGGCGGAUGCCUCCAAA

Variants of: B1
Experiment: self-cleavage kobs at 640 uM GlcN6P; higher = faster cleavage; RNA array
Conditions: with glucosamine-6-phosphate
Fewer inactive variants are shown than the library holds.
PROPERTY: self-cleavage kobs at 640 uM GlcN6P

Below, each entry is followed by its recorded self-cleavage kobs at 640 uM GlcN6P result.
> print(dat)
    mutation.spec                             property  assay.value
1       C34A A64U  self-cleavage kobs at 640 uM GlcN6P  < 1e-05 s⁻¹
2  G51C A52C G60A  self-cleavage kobs at 640 uM GlcN6P  < 1e-05 s⁻¹
3  U49A G59U C71G  self-cleavage kobs at 640 uM GlcN6P  < 1e-05 s⁻¹

Provide self-cleavage kobs at 640 uM GlcN6P for all items below, preserving their order.
1. G40A G66U
2. C8U C10G C67G
3. C16A G32U
4. C16U G43U U57C
5. G13C C68U C71U
6. U30A G41U U57G G62A

(A)
["6.02e-05 s⁻¹", "0.000675 s⁻¹", "5.63e-05 s⁻¹", "< 1e-05 s⁻¹", "< 1e-05 s⁻¹", "< 1e-05 s⁻¹"]

Provide the reported self-cleavage kobs at 640 uM GlcN6P of each entry below, same order.
1. A33U G35U
2. U45G U55A
3. G43A C68U
4. C10U
5. C11U G66A
6. C16U G43U G59U
7. U30C G38C

(A)
< 1e-05 s⁻¹
0.00187 s⁻¹
0.0114 s⁻¹
1.32e-05 s⁻¹
0.000205 s⁻¹
< 1e-05 s⁻¹
< 1e-05 s⁻¹

Please report self-cleavage kobs at 640 uM GlcN6P for every entry that follows.
1. G7A G38C
2. G7U C70A
3. C16A A53G
4. A12G U65G
5. U54G G66A
6. C10U A52C G66A
7. A15G A53C
8. G38U C58U U69G

(A)
< 1e-05 s⁻¹
0.000596 s⁻¹
0.000374 s⁻¹
3.32e-05 s⁻¹
0.00385 s⁻¹
< 1e-05 s⁻¹
0.00195 s⁻¹
0.000157 s⁻¹

Hello, I would appreciate it if you could give self-cleavage kobs at 640 uM GlcN6P for each entry below.
1. U30C G63U C70G
2. C11U G40C
3. G21U U47G
4. G35C G59U C61A
5. G13C A48G U49C
6. G29A U56A
7. C50U G51C

(A)
1. 3.84e-05 s⁻¹
2. 3.93e-05 s⁻¹
3. 0.00247 s⁻¹
4. < 1e-05 s⁻¹
5. < 1e-05 s⁻¹
6. 0.000389 s⁻¹
7. < 1e-05 s⁻¹

Need self-cleavage kobs at 640 uM GlcN6P for each of these variants.
1. G7U A15C A39C
2. U49G G60C

(A)
1: < 1e-05 s⁻¹; 2: < 1e-05 s⁻¹

Batch request: self-cleavage kobs at 640 uM GlcN6P per item, same order as input.
1. C16G C34A
2. U45A U56G

(A)
< 1e-05 s⁻¹
0.0108 s⁻¹

Consider the following items and state reported self-cleavage kobs at 640 uM GlcN6P for each.
1. G38A U56A
2. C34G G63A

(A)
< 1e-05 s⁻¹
< 1e-05 s⁻¹

Kindly give each listed record's self-cleavage kobs at 640 uM GlcN6P.
1. G51U A64U
2. G7A G43U U49G G63C A64U

(A)
< 1e-05 s⁻¹
< 1e-05 s⁻¹

The values you see were collected from the supplement of paper PMC7125110.
